Data provenance is paper doi:10.1101/2021.01.12.426394.

- MEASURED_ON: honeybee tachykinin-related peptide receptor, FLAG-TRPR expressed in HEK293 cells (Apis mellifera)
- RUN_DESCRIPTION: competitive binding of a fluorescent ligand on cells
Where no end group is shown, it is not given here.
PROPERTY_MEASURED: IC50 (nM)

(I) ALMGFQGVR-NH2 [tachykinin-related peptide 2 (TRP2), unlabeled]
(II) APMGFQGMR-NH2 [tachykinin-related peptide 3 (TRP3), unlabeled]
Determine, for I and II , which has the greater value of IC50. # answer = label of selected item
II
